Where these numbers come from: paper PMC5374710

tested on: SH-SY5Y cells; assay: Cytotoxicity in SH-SY5Y neuroblastoma cell line (MTT); settings: 24 h
Task for the reader: assign each of the following compounds its reported SH-SY5Y LD50.

Query: Please tell me: SH-SY5Y LD50 of Cc1[nH]nc2c1C(c1ccccc1[N+](=O)[O-])C(C#N)=C(N)O2 (stereo not drawn) , system SH-SY5Y cells?
Response: > 100 µM

Query: Try this compound too: Cc1ccc(C2C(C#N)=C(N)Oc3[nH]nc(C)c32)cc1 (stereo not drawn)
Response: > 100 µM

Query: Try this compound too: Cc1[nH]nc2c1C(c1ccncc1)C(C#N)=C(N)O2 (stereo not drawn)
Response: > 100 µM

Query: Try this compound too: Cc1n[nH]c2c1C(c1ccccc1Br)C(C#N)=C(N)O2 (stereo not drawn)
Response: > 100 µM

Query: Try this compound too: Cc1[nH]nc2c1C(c1cccnc1)C(C#N)=C(N)O2 (stereo not drawn)
Response: > 100 µM

Query: Try this compound too: Cc1[nH]nc2c1C(c1cccc(Cl)c1)C(C#N)=C(N)O2 (stereo not drawn)
Response: > 100 µM

Query: Try this compound too: Cc1[nH]nc2c1C(c1ccc(Br)cc1)C(C#N)=C(N)O2 (stereo not drawn)
Response: > 100 µM

Query: Try this compound too: Cc1[nH]nc2c1C(c1ccc([N+](=O)[O-])cc1)C(C#N)=C(N)O2 (stereo not drawn)
Response: > 100 µM

Query: Try this compound too: COc1ccc(C2C(C#N)=C(N)Oc3n[nH]c(C)c32)cc1 (stereo not drawn)
Response: > 100 µM
